test system: AncSZ; assay: phosphorylation enrichment, bacterial display (enrichment ratio); higher = better substrate or ligand; peptides without Tyr show the background;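 further: 11-residue human phosphosite peptides and single-mutation variants displayed on the E. coli surface, counted by deep sequencing, each peptide's frequency after selection divided by its frequency in the unselected input library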;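 further: frequency after pTyr selection over input frequency; kinase dosed for 20-30% of maximal phosphorylation in three min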
Entries annotated with measured phosphorylation enrichment
Write no unit; give the number alone.

Below: 8 sequences and their reported phosphorylation enrichment.
• EKQVAYCPSGK [ROS1_Y2323] = 0.634
• GVRYIYTIDGS [DCX_Y105] = 1.09
• QTLEAYIRWNK [SPAST_Y604] = 1.2
• PVQAAYKKVVA [HBB_Y131_Q132K] = 0.645
• TLNHQYDFTFD [CSNK1A1_Y292_YF] = 1.22
• LVPPRYARSEI [PKP2_Y194] = 1.26
• YGPPQYNMQYS [ERBB2IP_Y977_I979M] = 0.794
• GMTLSYLFREL [NDUFS8_Y74_P79L] = 0.888

Record FARNSYVAGQF [G6PD_Y107_YF] . Reported phosphorylation enrichment: 0.662

Record NFFDTYIKTCL [IQGAP2_Y1445_YF] . Reported phosphorylation enrichment: 1.3

Record RGESFYQDTMN [RARS_Y338_R341T] . Reported phosphorylation enrichment: 1.02

Record KILGRYFETGS [PAX2_Y72_YF] . Reported phosphorylation enrichment: 0.575

====

Entries annotated with measured phosphorylation enrichment
target: FGFR3 (UniProt P22607); experiment: phosphorylation enrichment, bacterial display (enrichment ratio); higher = better substrate or ligand; peptides without Tyr show the background
Sequence (P22607 whole entry, looked up): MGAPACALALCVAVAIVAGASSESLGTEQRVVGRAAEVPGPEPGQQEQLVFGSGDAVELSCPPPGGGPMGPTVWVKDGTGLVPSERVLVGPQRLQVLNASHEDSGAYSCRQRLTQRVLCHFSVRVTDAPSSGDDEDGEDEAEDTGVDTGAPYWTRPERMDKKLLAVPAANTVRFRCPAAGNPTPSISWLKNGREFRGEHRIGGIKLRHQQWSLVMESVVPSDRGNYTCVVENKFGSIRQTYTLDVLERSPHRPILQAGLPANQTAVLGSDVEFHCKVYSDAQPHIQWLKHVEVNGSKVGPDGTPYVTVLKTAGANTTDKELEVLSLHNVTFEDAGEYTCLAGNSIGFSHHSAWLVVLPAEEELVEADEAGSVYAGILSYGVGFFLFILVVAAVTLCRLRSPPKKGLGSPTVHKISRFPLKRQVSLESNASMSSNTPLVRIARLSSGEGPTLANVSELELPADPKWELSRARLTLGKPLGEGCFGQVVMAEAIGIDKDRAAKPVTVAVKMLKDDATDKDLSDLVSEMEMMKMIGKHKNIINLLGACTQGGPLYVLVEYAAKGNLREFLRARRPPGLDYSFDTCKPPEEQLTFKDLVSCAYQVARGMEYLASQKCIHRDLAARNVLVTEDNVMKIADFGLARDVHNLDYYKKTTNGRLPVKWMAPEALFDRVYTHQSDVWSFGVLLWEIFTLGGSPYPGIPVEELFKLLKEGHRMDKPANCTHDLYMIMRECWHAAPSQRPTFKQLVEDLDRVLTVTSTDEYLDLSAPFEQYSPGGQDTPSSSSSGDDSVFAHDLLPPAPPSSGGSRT
Write no unit; give the number alone.

Below: 4 sequences and their reported phosphorylation enrichment.
* KLNNEYLELNY [MME_Y497] | 3.27
* SGPRRYTMAAL [TTR_Y125_I127M] | 0.459
* DFSLKYATDIP [APC_Y1183_YF] | 0.668
* DRPASYLDKVR [KRT17_Y98_L95P] | 0.456

Record KVKPIYFHTRG [AR_Y916_Q920R] . Reported phosphorylation enrichment: 0.614

Record QAKRKYQEASK [FES_Y156] . Reported phosphorylation enrichment: 0.441

Record MSNFAYVKREV [SCN1A_Y1694] . Reported phosphorylation enrichment: 0.61

Record DEWFLYKMRDI [CPS1_Y879_K875E] . Reported phosphorylation enrichment: 0.878

Record IGHGSYAKVLL [PRKCZ_Y263_R260H] . Reported phosphorylation enrichment: 0.635

Record KLIETYFSKNY [PLP1_Y50] . Reported phosphorylation enrichment: 0.453

Record MDQAEYQAKIR [DHX58_Y518] . Reported phosphorylation enrichment: 0.412

====

biological target: MERTK (UniProt Q12866); test: phosphorylation enrichment, bacterial display (enrichment ratio); higher = better substrate or ligand; peptides without Tyr show the background
Sequence (Q12866 whole entry, looked up): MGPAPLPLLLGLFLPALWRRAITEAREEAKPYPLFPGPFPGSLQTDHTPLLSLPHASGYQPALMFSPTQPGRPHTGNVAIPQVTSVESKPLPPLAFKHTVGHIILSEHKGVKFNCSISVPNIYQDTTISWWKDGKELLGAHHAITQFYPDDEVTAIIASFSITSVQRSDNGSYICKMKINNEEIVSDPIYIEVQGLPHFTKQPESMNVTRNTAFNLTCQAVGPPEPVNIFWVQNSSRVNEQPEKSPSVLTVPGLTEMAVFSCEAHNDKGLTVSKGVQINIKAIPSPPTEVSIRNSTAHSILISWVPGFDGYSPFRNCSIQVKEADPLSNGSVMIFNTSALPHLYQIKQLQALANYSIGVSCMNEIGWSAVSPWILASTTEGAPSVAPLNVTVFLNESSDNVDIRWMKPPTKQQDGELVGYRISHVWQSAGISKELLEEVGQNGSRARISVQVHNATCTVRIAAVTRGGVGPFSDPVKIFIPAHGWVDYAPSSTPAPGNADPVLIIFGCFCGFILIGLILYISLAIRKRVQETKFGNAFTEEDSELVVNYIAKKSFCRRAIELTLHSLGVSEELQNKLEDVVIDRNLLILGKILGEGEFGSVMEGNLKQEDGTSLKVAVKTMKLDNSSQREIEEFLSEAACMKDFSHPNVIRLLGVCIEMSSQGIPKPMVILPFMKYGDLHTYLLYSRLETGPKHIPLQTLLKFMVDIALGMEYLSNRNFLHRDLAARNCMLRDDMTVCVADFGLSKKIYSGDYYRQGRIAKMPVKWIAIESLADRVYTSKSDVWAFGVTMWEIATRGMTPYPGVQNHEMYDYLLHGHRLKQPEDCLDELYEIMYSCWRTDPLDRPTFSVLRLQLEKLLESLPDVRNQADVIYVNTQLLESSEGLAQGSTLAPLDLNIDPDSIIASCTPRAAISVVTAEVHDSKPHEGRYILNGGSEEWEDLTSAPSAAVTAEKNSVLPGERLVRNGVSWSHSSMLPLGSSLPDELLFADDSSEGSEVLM
Entries annotated with measured phosphorylation enrichment
Write no unit; give the number alone.

• GDEAIYATVAG [NRTKtide_2018] = 9.16
• SDYSRYARTSI [TERT_Y949_S948R] = 0.444
• KELAPYDENRF [RPS19_Y48_W52R] = 0.5
• SWKRRYFLLRA [APBB1IP_Y331] = 0.759
• ADLLDYIKALN [HPRT1_Y81] = 0.48
• FGDTPYIPFRD [CDC14C_Y132] = 0.445
• IRKKFYRAILE [CHD7_Y1218_Q1214R_YF] = 0.618
• KWKQKYEESQS [MYH6_Y1462_E1457K] = 0.431

Record AHLTEYLSTHF [UQCRC1_Y219_D215H_YF] . Reported phosphorylation enrichment: 0.408
